# MEASUREMENT TARGET: T1, recombinant protein consisting of the extracellular domain of human TREM2 fused to the His tag (human, UniProt Q9NZC2 19-174)
# T1 construct: also called His tagged hTREM2; His-TREM2
# T1 sequence: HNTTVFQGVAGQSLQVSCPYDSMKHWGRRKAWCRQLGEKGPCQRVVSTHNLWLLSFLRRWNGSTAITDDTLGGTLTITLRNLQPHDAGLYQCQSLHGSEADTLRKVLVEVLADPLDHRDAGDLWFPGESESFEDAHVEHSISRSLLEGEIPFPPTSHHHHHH
# ASSAY TEXT: direct ELISA, coated His-TREM2 0.5 ug/mL, Ab stock 1 mg/mL
METRIC NAME: OD at dilution 19683000
Quick note: number first, unit second.

// query Endpoint output: OD at dilution 19683000 of 61B11C9 (antibody, V domains shown, Biotin conjugated in sup ELISA, cell-based ELISA and flow cytometry) VH: QLQESGPEQVKPGASVKMSCRTSGYTFTAYNMHWVKQRLGKSLEWIGYIRPTNGDTRYNRRFRDKATLTVDKSSSTTYMELRSLTSEDSAVYYCTRSTTVASFDYWGQGTTLTVSS VL: DIVMTQTTSSLTVSVGQKITLNCKSSQSLLYTNNQKNFLAWYQQKPGQSPKLLIYWASTRDSGVPDRFTGSGSGTDFTLTITSVMAEDLAVYFCQQYYDFPPTFGGGTKLEIK . Value?
// result 0.066 OD

// query OD at dilution 19683000 value for entry 60H4A3 (antibody, V domains shown, Biotin conjugated in sup ELISA, cell-based ELISA and flow cytometry) VH: EVQLQESGPELVKPGASVKMSCKASGYTFTDYNMHWVKQSHGKSLEWIGYIYPNNGGTGYNQKFKGKATLTVNKSSSTAYMELRSLTSEDSAVYYCARSGRGFAYWGQGTLVTVSA VL: DIVMTQSPASLSVTPGDRVSLSCRASQSISDYLHWYQQKSHESPRLLIKYASQSISGIPSRFSGSGSGSDFTLSINSVEPEDVGVYYCQNGHSFPYTFGGGTKLEIK
// result 0.063 OD

// query Request the reported OD at dilution 19683000 associated with 83E10B12 (antibody, V domains shown, Biotin conjugated in sup ELISA, cell-based ELISA and flow cytometry) VH: QVQLQESGPELVKPGASVKISCKASGYIFSYSWMNWVKQRPGKGLEWIGRIYPGDGDADYNGKFKGKATLTADKSSNTAYMQLTSLTSEDSAVYFCARLHIYDGYYVSVYWGQGTLVTVSA VL: DIQMTQTTSCLSASLGDRVTISCRASQDINNYLSWYQQKPDGTVKLLIYYTSKLHSGVPSRFSGSGSGTDYSLTIGNLEQEDVATYFCQQGDTLPWTFGGGTRLEIK
// result 0.053 OD

// query Return reported OD at dilution 19683000; argument: 80E3C7 (antibody, V domains shown, Biotin conjugated in sup ELISA, cell-based ELISA and flow cytometry; also called anti-TREM2 antibody (E3C7); TREM2 Ab E3C7) VH: QVQLQQPGAEPLKPGASVKMSCEASGYTFTNFWITWMKLRPGQGLEWIGDIYPGTGNTNYNEKFKSRATLTVDTSSTTAYMQLSSLTSEDSAVYYCAREAYYTNPGFAYWGHGTLVTVSA VL: DVLMTQSPLSLPVNLGDQASISCKSSQNIVHSNGNTYLEWYLQRPGQSPKLLIYKVSNRFSGVPDRFSGSGSGTDFTLKISRVEAEDLGVYYCFQGSHVPYTFGGGTKLEIK
// result 0.085 OD

// data source = patent US20240239886A1
